FYI, the data here is from ChEMBL document CHEMBL4130562.

protocol-summary: Solubility in pH 1.2 buffer
Format: physicochemical
Recorded solubility, one value per entry.
measured-quantity: solubility

molecule-smiles	reported-result
CC(=O)NC[C@H]1CN(c2ccc(-c3ccc4c(c3)NC(=O)CO4)c(F)c2)C(=O)O1	22 µg/mL
O=C1COc2ccc(-c3ccc(N4C[C@H](CO)OC4=O)cc3F)cc2N1	4.4 µg/mL

###

System: Staphylococcus aureus
protocol-summary: Antibacterial activity against linezolid-resistant Staphylococcus aureus by microbroth dilution method
Format: functional
Binarize MIC at 2 µg/mL; below is 1, at or above is 0.

compound	category
O=C1NCCOc2ccc(-c3ccc(N4C[C@H](CO)OC4=O)cc3F)cc21	0
CCC(=O)NC[C@H]1CN(c2ccc(-c3ccc4c(c3)NC(=O)CO4)c(F)c2)C(=O)O1	1
O=C1COc2ccc(-c3ccc(N4C[C@H](CO)OC4=O)cc3F)nc2N1	0
CC1(C)Oc2ccc(-c3ccc(N4C[C@H](CO)OC4=O)cc3F)cc2NC1=O	0
CC(=S)NC[C@H]1CN(c2ccc(-c3ccc4c(c3)NC(=O)CO4)c(F)c2)C(=O)O1	1
O=C1COc2ccc(-c3ccc(N4C[C@H](CO)OC4=O)cc3F)cc2N1	1
O=C1O[C@@H](CO)CN1c1ccc(-c2ccc3c(c2)OCCO3)c(F)c1	0
O=C1Cc2ccc(-c3ccc(N4C[C@H](CO)OC4=O)cc3F)cc2N1	0
O=C1COc2c(cccc2-c2ccc(N3C[C@H](CO)OC3=O)cc2F)N1	0
O=C1O[C@@H](CO)CN1c1ccc(-c2cnc3ccc(=O)[nH]c3c2)c(F)c1	0
O=C1O[C@@H](CO)CN1c1ccc(-c2ccc3oc(=O)[nH]c3c2)c(F)c1	0
Cl.N=C(N)NC[C@H]1CN(c2ccc(-c3ccc4c(c3)NC(=O)CO4)c(F)c2)C(=O)O1	0
COC(=O)NC[C@H]1CN(c2ccc(-c3ccc4c(c3)NC(=O)CO4)c(F)c2)C(=O)O1	1
CS(=O)(=O)NC[C@H]1CN(c2ccc(-c3ccc4c(c3)NC(=O)CO4)c(F)c2)C(=O)O1	0
O=C1COc2ccc(-c3ccc(N4C[C@H](CNC(=O)C5CC5)OC4=O)cc3F)cc2N1	0
O=C1COc2ccc(-c3ccc(N4C[C@H](CNC(=O)C(F)F)OC4=O)cc3F)cc2N1	0
CC(=O)NC[C@H]1CN(c2ccc(-c3ccc4c(c3)NC(=O)CO4)c(F)c2)C(=O)O1	1
O=C1COc2cccc(-c3ccc(N4C[C@H](CO)OC4=O)cc3F)c2N1	0
C[C@H]1COc2c(N3CCN(C)CC3)c(F)cc3c(=O)c(C(=O)O)cn1c23.C[C@H]1COc2c(N3CCN(C)CC3)c(F)cc3c(=O)c(C(=O)O)cn1c23.O [LEVOFLOXACIN]	0
CC(=O)NC[C@H]1CN(c2ccc(N3CCOCC3)c(F)c2)C(=O)O1 [LINEZOLID]	0
O=C1COc2cc(-c3ccc(N4C[C@H](CO)OC4=O)cc3F)ccc2N1	0
Cl.NC[C@H]1CN(c2ccc(-c3ccc4c(c3)NC(=O)CO4)c(F)c2)C(=O)O1	0
O=C(CO)NC[C@H]1CN(c2ccc(-c3ccc4c(c3)NC(=O)CO4)c(F)c2)C(=O)O1	0
